Tested on: PRMT1 (protein arginine N-methyltransferase 1)
Test: small molecules binding arginine methyltransferase PRMT1 – biochemical, small-molecule microarray, 635 nm fluorescence, primary screen (AID 1088);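 also: binding of Prmt1 protein to compounds spotted on small-molecule microarray slides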
Details: higher = more signal
I'd appreciate it if you could supply composite z-score values for the items below.

I need composite z-score for every entry listed below, if you could help.
1. CC(c1ccccc1)C(O)C1C=CC2C(=O)N(C)C(=O)C2N1Nc1ccccc1 (stereo not given)
2. C=C(COC)/C(=C/C[C@H](OC(=O)c1ccncc1)c1ccccc1OCCO)c1cc(C(=O)OC)ccc1OC

Outgoing:
1: 1.33; 2: 1.44

Below is a list of molecules. For each, state its recorded composite z-score.
1. CC1CC/C=C\[C@H]2OC34C=CCN(C(C)C)C(=O)[C@H]3N(CCO)C(=O)[C@@H]4C2C(=O)O1 (stereo not given in full)
2. Cc1ccc(S[C@]2(C(=O)NC(C)C)CC(=O)N(Cc3cc(C(F)(F)F)cc(C(F)(F)F)c3)[C@@H]2c2ccc(CO)cc2)cc1
3. CC(=O)NCCCC[C@@H]1NC(=O)[C@@H]2C[C@H](C(=O)NCCCCCN)[C@H](c3cccc(OCCO)c3)N2C1=O
4. C[N+](C)(C)CCCCCCNC(=O)[C@@H]1C[C@@H]2C(=O)N3CCC[C@H]3C(=O)N2[C@@H]1c1ccc(O)cc1

Outgoing:
[-0.138, -0.44, 0.872, 1.43]

Required: composite z-score, one value per molecule below.
1. CCCCCN1CC=CC23O[C@@H]4/C=C\CCC(C)OC(=O)C4[C@H]2C(=O)N(C(CO)C(C)C)[C@@H]3C1=O (stereo not given in full)
2. COc1ccc(CCNC(=O)[C@@H]2c3ccccc3C(=O)N(C3CCCCC3)[C@H]2c2ccc(CO)cc2)cc1
3. CCOC(=O)C=Cc1cccc(C)c1O
4. COC(=O)[C@@]1(Cc2ccc(F)cc2)[C@H]2c3cc(C(=O)N(C)C)n(Cc4ccc(OC(F)(F)F)cc4)c3C[C@H]2CN1C(=O)c1ccccc1
5. COC(=O)C1=CC(CCCO)=CC(c2cccs2)N(C)C=C1C(=O)OC (stereo not given)
6. C=CCNC(=O)[C@H]1[C@@H]2C(=O)O[C@@H](c3ccccc3)[C@@H](c3ccccc3)N2[C@@H](c2ccccc2OCCO)[C@]12C(=O)N(C(=O)OCCOC)c1ccc(C#CC3(O)CCCCCC3)cc12
7. O=C1OCCC=C[C@H]2OC34C=CCN(Cn5nnc6ccccc65)C(=O)[C@H]3N(CCCO)C(=O)[C@@H]4C12 (stereo not given in full)

Outgoing:
1: 0.0839; 2: 0.399; 3: 0.23; 4: -1.21; 5: 0.0782; 6: 1.56; 7: -1.72

Provide each entry's composite z-score from the list below.
1. COCCOC(=O)N1C(=O)[C@@]2(c3cc(C#CC4(O)CCCCCC4)ccc31)[C@H](C(=O)Nc1nc3ccccc3s1)[C@H]1C(=O)O[C@H](c3ccccc3)[C@H](c3ccccc3)N1[C@@H]2c1ccc(O)cc1
2. CCCCCCCCCC(O)C1C=CC2C(=O)N(c3ccccc3)C(=O)C2N1Nc1cc(OC)c(OC)c(OC)c1 (stereo not given)

Outgoing:
[1.54, 0.619]
